Where do these numbers come from? They come from ChEMBL document CHEMBL4351010.

Molecular target: Adenosine receptor A1 (Homo sapiens, UniProt P30542)
Sequence (P30542 whole entry): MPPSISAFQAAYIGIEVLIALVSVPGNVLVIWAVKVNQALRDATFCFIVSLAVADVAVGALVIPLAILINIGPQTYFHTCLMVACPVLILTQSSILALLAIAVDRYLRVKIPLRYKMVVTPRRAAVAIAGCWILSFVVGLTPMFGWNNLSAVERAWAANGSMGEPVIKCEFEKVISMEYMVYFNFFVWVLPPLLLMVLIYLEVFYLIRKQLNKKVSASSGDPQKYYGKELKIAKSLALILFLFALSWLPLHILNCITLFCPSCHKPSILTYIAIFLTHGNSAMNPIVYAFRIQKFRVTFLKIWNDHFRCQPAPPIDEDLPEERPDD
Test: Displacement of [3H]DPCPX from human cloned adenosine receptor A1 expressed in CHO-K1 cell membranes incubated for 60 mins by microbeta counting method
readout_label: Ki (nM)

// known answers, use as guide
Would you kindly share the measured Ki for "Nc1nc(N/N=C/c2cncs2)nc2c1ncn2[C@@H]1O[C@H](CO)[C@@H](O)[C@H]1O" ?
22

Sample "Nc1nc(N/N=C/c2ccc[nH]2)nc2c1ncn2[C@@H]1O[C@H](CO)[C@@H](O)[C@H]1O" — what was its Ki?
8

[1] Nc1nc(N/N=C/C2CCCC2)nc2c1ncn2[C@@H]1O[C@H](CO)[C@@H](O)[C@H]1O
[2] CCCCc1nc(/C=N/Nc2nc(N)c3ncn([C@@H]4O[C@H](CO)[C@@H](O)[C@H]4O)c3n2)c(Cl)[nH]1
Looking at recorded values for Ki, does 1 or 2 come in lower? When you have decided, please share the label of that item.
1
(1: 5.6 nM, 2: 12 nM)

[I] Nc1nc(N/N=C/c2ccc(-c3ccc(Br)cc3)o2)nc2c1ncn2[C@@H]1O[C@H](CO)[C@@H](O)[C@H]1O
[II] N#Cc1ccccc1/C=N/Nc1nc(N)c2ncn([C@@H]3O[C@H](CO)[C@@H](O)[C@H]3O)c2n1
[III] CCCCC/C=C/C=C/C=N/Nc1nc(N)c2ncn([C@@H]3O[C@H](CO)[C@@H](O)[C@H]3O)c2n1
I would appreciate it if you could sort these 3 compounds by Ki, starting from the smallest number. Put the labels in the requested order and list them out.
III, II, I
